System: MS2 coat protein
Test: apparent KD of MS2 coat protein; designed switch direction (-1 OFF switch, 1 ON switch): -1; higher = weaker reporter binding
Conditions: input ligand: none
Result Type: apparent KD of MS2 coat protein (µM)
One number for each entry, in µM.

Completed entries (count: 3):
GGCAGACAUGAGGAUCACCCAUGUCAGGAUAUGGUGCGAUCGUCGAUAGACGAUAGCACCAGAAGGGACAUGCC [Mat - Exclusion 1 - Eli Mod - D3] (Eterna round: R97, puzzle: Exclusion 1); 0.0214
CGUUCGCGAGGAUAUGCAUUCGAGUCCAUUACGUGUCUGGGACUUGAGGAUCACCCAAGUAGAAGGCGUCUCAC [salish99_ex2_r4_646] (Eterna round: R97, puzzle: Exclusion 2); 0.154
AACCUGAGGCUUUGCUUUAGGUUUACAUGAGGAUCACCCAUGUAGGAUAUGGUAGGCUUUGCUUACCAGAAGGACAUGAUAAUU [Mat - Exclusion NG 3 - Mod of JL - D27] (Eterna round: R96, puzzle: Exclusion NG 3); 0.0438

Moving on to the next sequence.
Would you mind telling me what apparent KD of MS2 coat protein value was observed for AAUACAAGCUAUUGAUCCCACAUGAGGAUCACCCAUGUGCCUGGCCGUGAGACAAGGUUUACAAUAGCUCGUCUUAU [Sensor-V1 #46] (Eterna round: R97, puzzle: Sensor, turn-off variant 1) ?
0.0447

* * *

System: MS2 coat protein
Assay: apparent KD of MS2 coat protein; designed switch direction (-1 OFF switch, 1 ON switch): -1; higher = weaker reporter binding
Details: input ligand: none
Would you mind telling me the reported apparent KD of MS2 coat protein of each entry?
One number for each entry, in nM.

Completed entries (count: 2):
UACAUGAGGAUCACCCAUGUUUUGUCGUGUAUGGUAUUUAUCUAGGAUAUCAUUUUAUUUAUUUAUGAGAAGGAGAAUAUUAAU [JMF's solution 6] (Eterna round: R96, puzzle: Exclusion NG 3); 37.2
ACUCAGUCAGGAUAUCAAUCCGCCUGUGAUACGCAGGCGGCUGAGAAGGGACAUGAGGAUCACCCAUGUAAAGA [jl-ex4-4.18 ViennaUCT mod] (Eterna round: R97, puzzle: Exclusion 4); 129

Moving on to the next sequence.
Would you mind telling me what apparent KD of MS2 coat protein value was observed for GGAUGUCUAAAGGAUAUGCUGGAUUAAUAUCUGGCAGAAGGUUGGACAUGAGGAUCACCCAUGUAAAUUCUGCC [Omei Ex6 A11] (Eterna round: R97, puzzle: Exclusion 6) ?
17.3

* * *

Tested on: MS2 coat protein
Assay: apparent KD of MS2 coat protein; designed switch direction (-1 OFF switch, 1 ON switch): -1; higher = weaker reporter binding
Conditions: input ligand: none
Result Type: apparent KD of MS2 coat protein (nM)
Numbers only, in nM.

Completed entries (count: 4):
AGCUGUGGCCGAGGAUAUCACGAACCAUGGAAAACCAUGGAACUCACACAUGAGGAUCACCCAUGUGAGAAGGCGGUCUCAGCA [Eli eng2 - 021] (Eterna round: R96, puzzle: Exclusion NG 2); 15.1
CCCAGUUAUUCAGGAUAUUGUACAUGAGGAUCACCCAUGUAAUAAAUGAGGAUUUCGGGUGUCUACAAGAAGGGAAGGAUAGGC [Ostracism 19 - Jieux - Exclusion NG 2] (Eterna round: R96, puzzle: Exclusion NG 2); 29.3
GUAGAGUCAGGAUAUACAAGAUCGAAAGAUCAAAGGUCCAUACAUGAGGAUCACCCAUGUAGAAGGGACUCUAC [Eli x2 4.09] (Eterna round: R97, puzzle: Exclusion 2); 24.5
ACAUCCUUAGUAAGGAUAUCGUCCGCCGAGGCGGGCGAGAAGGUACAUGAGGAUCACCCAUGUAUGCAGCAGAU [Eternabot (L2) Solution 59] (Eterna round: R97, puzzle: Brourd's mod of Exclusion 4); 14

Moving on to the next sequence.
Would you mind telling me what apparent KD of MS2 coat protein value was observed for GGGCUGUCAGGAUAUGGGCCCGGGCCCGAAAGGGCCCGGGCCCAGAAGGGACAUGAGGAUCACCCAUGUGGCCC [-51.3, -50.3 kcal, A 22%] (Eterna round: R97, puzzle: Exclusion 4) ?
37.7
